All values here come from paper PMC12845261.

Tested on: P. aeruginosa ATCC 27853
Measurement description: Quantitative antimicrobial activity, serial binary microdilution (MIC, IC50)
Type: cell-based
Run conditions: Pseudomonas aeruginosa, ATCC27853, 24 h, 37 °C, DMSO control 1.25
Value kind: MIC (µg/mL)
Provide the reading as a plain figure in µg/mL.

Structure string	MIC, µg/mL
COc1ccc(O)c(/C=N/NC(=O)Cn2c(C)nc3ccccc3c2=O)c1	5000
COc1cccc(/C=N/NC(=O)Cn2c(C)nc3ccccc3c2=O)c1O	1250
Cc1nc2ccccc2c(=O)n1CC(=O)NN	1250

Task: Give recorded MIC. Cc1nc2ccccc2c(=O)n1CC(=O)N/N=C/c1cc(Br)ccc1O
Output: 1250

* * *

Measurement description: Total antioxidant capacity (TAC), DPPH method
Run conditions: 30 min, 517 nm, compound stock 1 mg/mL in methanol, reference ascorbic acid TAC = 100%
Note to self: values exactly at 40% are satisfied. So TAC (%) at or above 40% is satisfied, below is not satisfied.

Compound	Assigned class
COc1ccc(O)c(/C=N/NC(=O)Cn2c(C)nc3ccccc3c2=O)c1	not satisfied
Cc1nc2ccccc2c(=O)n1CC(=O)NN	not satisfied
COc1cc(/C=N/NC(=O)Cn2c(C)nc3ccccc3c2=O)cc([N+](=O)[O-])c1O	satisfied
O=C1O[C@H]([C@@H](O)CO)C(O)=C1O [ascorbic acid, reference compound]	satisfied
COc1cccc(/C=N/NC(=O)Cn2c(C)nc3ccccc3c2=O)c1O	satisfied

Let's switch to this compound now.
Task: Determine whether this compound has TAC (%) no lower than 40%: Cc1nc2ccccc2c(=O)n1CC(=O)N/N=C/c1cc(Br)ccc1O
Output: satisfied

* * *

Measurement description: Qualitative solubility in solvents
Type: physicochemical
Run conditions: methanol
Value kind: Solubility

Worked cases, Solubility given:
Molecule	Experimental value
COc1cc(/C=N/NC(=O)Cn2c(C)nc3ccccc3c2=O)cc([N+](=O)[O-])c1O [Compound 1f]	slightly soluble
Cc1nc2ccccc2c(=O)n1CC(=O)N/N=C/c1cc(Br)ccc1O [Compound 1a]	slightly soluble
Cc1nc2ccccc2c(=O)n1CC(=O)N/N=C/c1cc(Br)cc(Br)c1O [Compound 1b]	slightly soluble
COc1ccc(/C=N/NC(=O)Cn2c(C)nc3ccccc3c2=O)c(O)c1 [Compound 1d]	slightly soluble
COc1cccc(/C=N/NC(=O)Cn2c(C)nc3ccccc3c2=O)c1O [Compound 1c]	slightly soluble

Now examine the next entry.
Task: State its Solubility for this molecule: COc1ccc(O)c(/C=N/NC(=O)Cn2c(C)nc3ccccc3c2=O)c1 [Compound 1e]
Output: slightly soluble

* * *

Tested on: C. albicans ATCC 10231
Measurement description: Microbial adhesion, crystal violet (MICMA)
Assay type: cell-based
Run conditions: DMSO control 1.25
Each entry below lists one item and its recorded MICMA value.

Structure string	Value kind	Experimental value
COc1cc(/C=N/NC(=O)Cn2c(C)nc3ccccc3c2=O)cc([N+](=O)[O-])c1O	MICMA	1.25 mg/mL
Cc1nc2ccccc2c(=O)n1CC(=O)N/N=C/c1cc(Br)cc(Br)c1O	MICMA	5 mg/mL
COc1ccc(O)c(/C=N/NC(=O)Cn2c(C)nc3ccccc3c2=O)c1	MICMA	2.5 mg/mL
COc1ccc(/C=N/NC(=O)Cn2c(C)nc3ccccc3c2=O)c(O)c1	MICMA	1.25 mg/mL
COc1cccc(/C=N/NC(=O)Cn2c(C)nc3ccccc3c2=O)c1O	MICMA	0.625 mg/mL

Let's switch to this compound now.
Task: Supply reported MICMA belonging to this compound: Cc1nc2ccccc2c(=O)n1CC(=O)N/N=C/c1cc(Br)ccc1O
Output: 0.625 mg/mL
